Test: Biodistribution in BALB/c nude mice bearing A431-CCK2R/A431-mock xenografts
Assay type: in vivo
Conditions: female, athymic BALB/c nude, mouse, muscle, iv, 20 pmol, total radioactivity, xenografted BALB/c nude mice, i.v., ~20 pmol, 4 h p.i. (indium-111 or lutetium-177), mean ± SD n = 4; read-out: Uptake in muscle
Where a SMILES comes first, the peptide text is derived from it. [ ]: non-standard residue; d: D form. The star is where a group is joined. DOTA = O=C(O)CN1CCN(CC(=O)O)CCN(CC(=O)*)CCN(CC(=O)O)CC1; 1Nal = N[C@@H](Cc1cccc2ccccc12)C(=O)O; NMeNle = CCCC[C@H](NC)C(=O)O
Recorded tissue uptake at 4 h by entry
measured parameter: tissue uptake at 4 h (%ID/g)

compound	observed
CCCC[C@@H](C(=O)N[C@@H](CC(=O)O)C(=O)N(C)[C@@H](Cc1cccc2ccccc12)C(N)=O)N(C)C(=O)[C@H](Cc1c[nH]c2ccccc12)NC(=O)CNC(=O)[C@H](Cc1ccc(O)cc1)NC(=O)[C@H](C)NC(=O)[C@@H](CCC(=O)O)NC(=O)CN1CCN(CC(=O)O)CCN(CC(=O)O)CCN(CC(=O)O)CC1 [[^111In]In-DOTA-[(N-Me)1Nal^8]MGS5, metal not drawn]	0.12
CCCC[C@@H](C(=O)N[C@@H](CC(=O)O)C(=O)N[C@@H](Cc1ccc2ccccc2c1)C(N)=O)N(C)C(=O)[C@H](Cc1c[nH]c2ccccc12)NC(=O)CNC(=O)[C@H](Cc1ccc(O)cc1)NC(=O)[C@H](C)NC(=O)[C@@H](CCC(=O)O)NC(=O)CN1CCN(CC(=O)O)CCN(CC(=O)O)CCN(CC(=O)O)CC1 [[^111In]In-DOTA-[2Nal^8]MGS5, metal not drawn]	0.04
CCCC[C@@H](C(=O)N[C@@H](CC(=O)O)C(=O)N[C@@H](Cc1cccc2ccccc12)C(N)=O)N(C)C(=O)[C@H](Cc1c[nH]c2ccccc12)NC(=O)CNC(=O)[C@H](Cc1ccc(O)cc1)NC(=O)[C@H](C)NC(=O)[C@@H](CCCCN)NC(=O)CN1CCN(CC(=O)O)CCN(CC(=O)O)CCN(CC(=O)O)CC1 [[^111In]In-DOTA-[DLys^1]MGS5, metal not drawn] ({DOTA}-[dK]AYGW[NMeNle]D[1Nal]-NH2)	0.13
CCCC[C@@H](C(=O)N[C@@H](CC(=O)O)C(=O)N[C@@H](Cc1cccc2ccccc12)C(=O)NC)N(C)C(=O)[C@H](Cc1c[nH]c2ccccc12)NC(=O)CNC(=O)[C@H](Cc1ccc(O)cc1)NC(=O)[C@H](C)NC(=O)[C@@H](CCC(=O)O)NC(=O)CN1CCN(CC(=O)O)CCN(CC(=O)O)CCN(CC(=O)O)CC1 [[^111In]In-DOTA-MGS5[NHCH3], metal not drawn]	0.04

* * *

Test: Biodistribution in BALB/c nude mice bearing A431-CCK2R/A431-mock xenografts
Assay type: in vivo
Conditions: female, BALB/c nude, mouse, lung, iv, 20 pmol, total radioactivity, xenografted BALB/c nude mice, i.v., 20 pmol, gallium-68, 1 h p.i., mean ± SD n = 4; read-out: Uptake in lung
Experimental: The overall biodistribution and tumor targeting properties of selected radiolabeled peptides were evaluated in female athymic BALB/c nude mice (Charles River, Sulzfeld, Germany, age of 7 to 9 weeks). […] The tumors and other tissues (blood, lung, heart, muscle, spleen, intestine, liver, kidney, stomach, and pancreas) were dissected, weighed, and the radioactivity measured in the γ-counter. […]

molecule	tissue uptake at 1 h (%ID/g)
CCCC[C@@H](C(=O)N[C@@H](CC(=O)O)C(=O)N(C)[C@@H](Cc1cccc2ccccc12)C(N)=O)N(C)C(=O)[C@H](Cc1c[nH]c2ccccc12)NC(=O)CNC(=O)[C@H](Cc1ccc(O)cc1)NC(=O)[C@H](C)NC(=O)[C@@H](CCC(=O)O)NC(=O)CN1CCN(CC(=O)O)CCN(CC(=O)O)CCN(CC(=O)O)CC1 [[^68Ga]Ga-DOTA-[(N-Me)1Nal^8]MGS5, metal not drawn]	1.61
